Kindly state LMW/HMW ratio for each of the entries shown.
tested target: AβO in the low molecular weight (LMW) fraction of pooled soluble human AD brain extract (~8 kDa to ~70 kDa) (human) (UniProt P05067)
test name: SPR; BRU on LMW fraction divided by BRU on HMW fraction; Study 3
Give bare numbers.

Example binders with recorded LMW/HMW ratio:
Clone 14 (affinity matured VH with parental Vk, human IgG4 S241P / kappa) (antibody, V domains shown) VH: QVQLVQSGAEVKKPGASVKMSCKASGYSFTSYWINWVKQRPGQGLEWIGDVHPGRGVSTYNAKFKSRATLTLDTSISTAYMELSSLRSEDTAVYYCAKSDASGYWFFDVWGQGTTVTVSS VL: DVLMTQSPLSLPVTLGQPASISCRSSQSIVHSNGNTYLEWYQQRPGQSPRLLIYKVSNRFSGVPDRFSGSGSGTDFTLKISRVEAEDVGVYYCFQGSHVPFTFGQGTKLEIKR    1.45
parental antibody, PMN310 humanized antibody variant VH2/Vk5 (human IgG4 S241P / kappa) (antibody, V domains shown) VH: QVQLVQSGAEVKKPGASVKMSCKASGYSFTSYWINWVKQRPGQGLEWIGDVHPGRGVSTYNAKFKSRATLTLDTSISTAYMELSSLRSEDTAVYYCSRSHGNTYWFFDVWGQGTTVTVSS VL: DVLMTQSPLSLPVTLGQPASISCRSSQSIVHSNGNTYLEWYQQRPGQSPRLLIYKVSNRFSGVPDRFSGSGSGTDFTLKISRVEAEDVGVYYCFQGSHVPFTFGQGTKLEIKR    1.52
Clone 5 (affinity matured VH with parental Vk, human IgG4 S241P / kappa) (antibody, V domains shown) VH: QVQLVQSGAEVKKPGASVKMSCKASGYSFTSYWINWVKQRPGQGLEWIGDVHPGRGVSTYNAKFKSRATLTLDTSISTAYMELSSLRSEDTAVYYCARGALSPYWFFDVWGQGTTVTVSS VL: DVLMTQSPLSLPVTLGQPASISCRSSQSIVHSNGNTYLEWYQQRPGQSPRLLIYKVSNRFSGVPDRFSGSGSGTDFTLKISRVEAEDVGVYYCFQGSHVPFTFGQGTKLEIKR    1.2

We next turn to a different binder, shown below.
Query :: Reported LMW/HMW ratio, binder Clone 4 (affinity matured VH with parental Vk, human IgG4 S241P / kappa) (antibody, V domains shown) VH: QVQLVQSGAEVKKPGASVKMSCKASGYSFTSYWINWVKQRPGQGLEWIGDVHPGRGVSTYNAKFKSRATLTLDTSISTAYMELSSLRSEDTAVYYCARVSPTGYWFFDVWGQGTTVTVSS VL: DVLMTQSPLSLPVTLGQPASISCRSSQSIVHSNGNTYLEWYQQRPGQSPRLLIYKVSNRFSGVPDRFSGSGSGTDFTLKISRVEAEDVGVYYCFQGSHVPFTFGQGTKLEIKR : ____
Result :: 1.54

Origin of measurements: patent US20230141177A1
